Target: G-protein coupled receptor 84 (Homo sapiens, UniProt Q9NQS5)
Sequence (Q9NQS5 whole entry): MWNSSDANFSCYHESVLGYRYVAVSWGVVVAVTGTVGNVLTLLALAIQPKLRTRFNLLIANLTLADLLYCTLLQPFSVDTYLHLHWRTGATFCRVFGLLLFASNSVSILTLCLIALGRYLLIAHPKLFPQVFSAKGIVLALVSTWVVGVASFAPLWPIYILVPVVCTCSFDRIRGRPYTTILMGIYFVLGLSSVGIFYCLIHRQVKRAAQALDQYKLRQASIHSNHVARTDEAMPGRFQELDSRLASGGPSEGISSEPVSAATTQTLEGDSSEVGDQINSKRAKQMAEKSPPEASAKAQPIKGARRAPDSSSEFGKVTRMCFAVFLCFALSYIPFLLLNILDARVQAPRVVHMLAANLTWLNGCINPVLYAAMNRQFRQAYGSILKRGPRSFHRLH
Assay: Agonist activity at Gi coupled human GPR84 expressed in CHO cells assessed as inhibition of forskolin-induced cAMP accumulation after 15 mins in presence of [3H]-cAMP by radiometric assay
Type: functional, cell-based
QUANTITY_MEASURED: EC50

Solved cases below.
COC(=O)c1ccc2[nH]cc(Cc3c[nH]c4ccccc34)c2c1 | 10 µM
Cc1ccc2c(Cc3c[nH]c4cc(C)ccc34)c[nH]c2c1 | > 10 µM
COc1ccc2c(Cc3c[nH]c4cc(OC)ccc34)c[nH]c2c1 | > 10 µM
COc1ccc2[nH]cc(CC3C(=O)Nc4ccc(F)cc43)c2c1 (stereo not drawn) | > 10 µM
O=C(O)c1ccc2[nH]cc(Cc3c[nH]c4ccc(C(=O)O)cc34)c2c1 | ≥ 10 µM

QUERY: Please give the measured EC50 for this molecule: Cn1cc(Cc2c[nH]c3ccccc23)c2ccccc21
RESULT: ≥ 10 µM

QUERY: Please give the measured EC50 for this molecule: Cn1cc(Cc2cn(C)c3ccccc23)c2ccccc21
RESULT: > 10 µM

QUERY: Please give the measured EC50 for this molecule: Fc1cc2cc[nH]c2cc1F
RESULT: > 10 µM
